- system under test: hOT7T175 (Homo sapiens, UniProt Q969F8, L364H)
- Sequence (Q969F8 whole entry L364H): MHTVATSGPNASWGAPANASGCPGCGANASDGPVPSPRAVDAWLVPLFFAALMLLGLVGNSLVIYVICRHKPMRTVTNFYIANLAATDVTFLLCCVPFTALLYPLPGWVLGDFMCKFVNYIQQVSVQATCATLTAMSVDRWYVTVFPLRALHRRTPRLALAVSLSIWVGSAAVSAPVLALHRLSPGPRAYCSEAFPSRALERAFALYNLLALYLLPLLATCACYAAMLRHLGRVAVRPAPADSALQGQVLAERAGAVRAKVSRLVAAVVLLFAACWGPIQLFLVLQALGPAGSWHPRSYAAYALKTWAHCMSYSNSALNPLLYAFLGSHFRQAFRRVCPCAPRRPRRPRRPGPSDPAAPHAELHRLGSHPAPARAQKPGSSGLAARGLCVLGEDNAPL
- protocol details: hOT7T175 receptor binding activity: binding inhibition of Cy-5-labeled metastin (40-54) on hOT7T175-expressed CHO cells
- Method: Assay for hOT7T175 Receptor Binding Activity h0T7T175-Expressed CHO cells were cultured in MEM-cc medium (nucleic acid-free) containing 10% dialyzed serum. The medium was removed and the adherent cells were washed with PBS. Then, PBS containing 5 mM EDTA was added and the cells were scraped from a flask with a cell scraper. […]
Numbered stars: 1 amine (or outer) side, 2 acyl side, 3 side chain; on linkers, the order of the positions; unused ones are H or OH. Square brackets hold non-standard residues; d marks the D form. Peptide text beside a SMILES is read from it. X1 = O=C([C@H](Cc1ccc2ccccc2n1)N[*:1])[*:2]; Arg(Me) = CNC(=N)NCCC[C@H](N)C(=O)O; Orn = NCCC[C@H](N)C(=O)O; azaGly = NNC(=O)O
Hi! Just check whether IC50 is below 100 nM. Below gives Condition met, equal or above gives Condition not met.

compound	class
CNC(=N)NCCC[C@H](NC(=O)[C@H](CC(C)C)NC(=O)NNC(=O)[C@H](Cc1ccccc1)NC(=O)[C@H](CO)NC(=O)[C@H](CC(N)=O)NC(=O)[C@H](Cc1ccc2ccccc2n1)NC(=O)[C@H](CC(N)=O)NC(=O)[C@H](N)Cc1ccc(O)cc1)C(=O)N[C@@H](Cc1ccccc1)C(N)=O [Compound No. 301] (H-[dY]N[X1]NSF[azaGly]L[Arg(Me)]F-NH2)	Condition met
CC(C)C[C@H](NC(=O)CNC(=O)[C@H](Cc1ccccc1)NC(=O)[C@H](CO)NC(=O)[C@H](CC(N)=O)NC(=O)[C@H](Cc1c[nH]c2ccccc12)NC(=O)[C@H](CC(N)=O)NC(=O)[C@@H](N)Cc1ccc(O)cc1)C(=O)N[C@@H](CCCNC(=N)N(C)C)C(=O)N[C@@H](Cc1ccccc1)C(N)=O [Compound No. 83]	Condition met
CNC(=N)NCCC[C@H](NC(=O)[C@H](CC(C)C)NC(=O)CNC(=O)[C@H](Cc1ccccc1)NC(=O)[C@H](CO)NC(=O)[C@H](CC(N)=O)NC(=O)[C@@H](NC(=O)[C@H](CC(N)=O)NC(=O)[C@H](N)Cc1ccc(O)cc1)[C@@H](C)O)C(=O)N[C@@H](Cc1ccccc1)C(N)=O [Compound No. 205] (H-[dY]NTNSFGL[Arg(Me)]F-NH2)	Condition not met

Asked: Problem: For the compound CC(C)C[C@H](NC(=O)CNC(=O)[C@H](Cc1ccccc1)NC(=O)[C@H](CO)NC(=O)[C@H](CC(N)=O)NC(=O)[C@H](Cc1c[nH]c2ccccc12)NC(=O)[C@H](CC(N)=O)NC(=O)[C@@H](N)Cc1ccc(O)cc1)C(=O)N[C@@H](CCCN)C(=O)N[C@@H](Cc1ccccc1)C(N)=O [Compound No. 314] (H-YNWNSFGL[Orn]F-NH2) , is IC50 under 100 nM?
Given back: Condition not met

###

- system under test: hOT7T175 (Homo sapiens, UniProt Q969F8, L364H)
- protocol details: Intracellular Ca ion level-increasing activity using FLIPR in hOT7T175/CHO
- Format: cell-based
- Set-up: expressed in transfected cells; host or cells: CHO/dhfr- cells, obtained from ATCC
- test conditions: relative, Metastin (1-54) = 1
- Description: Assay for Intracellular Ca Ion Level-Increasing Activity Using Flipr In accordance with the method described in JPA 2000-312590, the intracellular Ca ion level-increasing activity was measured using FLIPR. […] The intracellular Ca ion level-increasing activity of the synthetic peptide in hOT7T175/CHO was determined using FLIPR (Molecular Devices, Inc.). […]
Numbered stars: 1 amine (or outer) side, 2 acyl side, 3 side chain; on linkers, the order of the positions; unused ones are H or OH. Square brackets hold non-standard residues; d marks the D form. Peptide text beside a SMILES is read from it. * marks the point of attachment. X10 = NC(=O)C[C@@H](C(=O)[*:2])N(C[C@@H](N)Cc1ccc(O)cc1)[*:1]; X11 = O=C(CNC(=S)[C@H](Cc1ccccc1)N[*:1])[*:2]; Cyclohexanecarbonyl = O=C(C1CCCCC1)*; Arg(Me) = CNC(=N)NCCC[C@H](N)C(=O)O; azaGly = NNC(=O)O
readout label: Specific Activity (intracellular Ca ion level-increasing activity)
A bare number is all that is needed in reply.

As a guide, the following entries are already answered.
molecule	experimental value
CNC(=N)NCCC[C@H](NC(=O)[C@H](CC(C)C)NC(=O)NNC(=O)[C@H](Cc1ccccc1)NC(=O)[C@H](CO)NC(=O)[C@H](CC(N)=O)NC(=O)C1CCCCC1)C(=O)N[C@@H](Cc1ccccc1)C(N)=O [Compound No. 278] (Cyclohexanecarbonyl-NSF[azaGly]L[Arg(Me)]F-NH2)	2
CC(C)C[C@H](NC(=O)CNC(=O)[C@H](Cc1ccccc1)NC(=O)[C@H](CO)NC(=O)[C@H](CC(N)=O)NC(=O)[C@H](Cc1c[nH]c2ccccc12)NC(=O)[C@H](CC(N)=O)NC(=O)[C@@H](N)Cc1ccc(O)cc1)C(=O)N[C@@H](CCCNC(=N)N)C(=O)N[C@@H](Cc1ccccc1F)C(N)=O	2
CC[C@H](C)[C@H](NC(=O)[C@H](N)Cc1ccc(O)cc1)C(=O)N[C@@H](CC(N)=O)C(=O)N[C@@H](CO)C(=O)N[C@@H](Cc1ccccc1)C(=O)NCC(=O)N[C@@H](CC(C)C)C(=O)N[C@@H](CCCNC(=N)NC)C(=O)N[C@@H](Cc1ccccc1)C(N)=O [Compound No. 228] (H-[dY]INSFGL[Arg(Me)]F-NH2)	5
CNC(=N)NCCC[C@H](NC(=O)[C@H](CC(C)C)NC(=O)CNC(=S)[C@H](Cc1ccccc1)NC(=O)[C@H](CO)NC(=O)[C@H](CC(N)=O)NC(=O)[C@H](Cc1c[nH]c2ccccc12)NC(=O)[C@H](CC(N)=O)NC(=O)[C@H](N)Cc1ccc(O)cc1)C(=O)N[C@@H](Cc1ccccc1)C(N)=O [Compound No. 296] (H-[dY]NWNS[X11]L[Arg(Me)]F-NH2)	3
CC[C@H](C)[C@H](NC(=O)[C@H](CC(N)=O)NC(=O)[C@H](N)Cc1ccc(O)cc1)C(=O)N[C@@H](CC(N)=O)C(=O)N[C@@H](CO)C(=O)N[C@@H](Cc1ccccc1)C(=O)NNC(=O)N[C@@H](CC(C)C)C(=O)N[C@@H](CCCNC(=N)NC)C(=O)N[C@@H](Cc1ccccc1)C(N)=O [Compound No. 233] (H-[dY]NINSF[azaGly]L[Arg(Me)]F-NH2)	1

Asked: Which Specific Activity (intracellular Ca ion level-increasing activity) is reported for this molecule? CC(C)C[C@H](NC(=O)CNC(=O)[C@H](Cc1ccccc1)NC(=O)[C@H](CO)NC(=O)[C@H](CC(N)=O)NC(=O)[C@H](Cc1c[nH]c2ccccc12)NC(=O)[C@H](CC(N)=O)NC[C@@H](N)Cc1ccc(O)cc1)C(=O)N[C@@H](CCCNC(=N)N)C(=O)N[C@@H](Cc1ccccc1)C(N)=O [Compound No. 294] (H-[X10]WNSFGLRF-NH2)
Given back: 10
